src = a melting point compilation (Tetko et al.; mined from patent text by program, amines drawn as free bases though some values may be those of a salt)

property: melting point

Cc1nc(N)sc1S(=O)(=O)N1CCN(C)CC1	188 °C
Oc1nsc(SCc2ccc(Cl)cc2)n1	138 °C
c1cn(CCc2ccc3c(c2)-c2[nH]nc(-c4ccsc4)c2C3)cn1	212 to 216 °C
Cc1c(C(=O)O)ccc(S(C)(=O)=O)c1S(C)(=O)=O	192 to 198 °C
Cc1ccc(C(=O)NC(NC(=O)Nc2ccccc2F)C(Cl)(Cl)Cl)cc1 (stereo not given)	257 to 259 °C
Nc1nc(N)c2cc(CCc3ccc(C(=O)N[C@@H](CCC(=O)O)C(=O)O)cc3)cnc2n1	> 250 °C
Cc1cc(C(=O)Nc2c(C)cccc2O)c(Br)s1	164 to 167 °C
Cc1cc(-c2ccc(-c3ccco3)cc2)n(-c2ccc(S(C)(=O)=O)cc2)c1	193 to 194 °C
O=C1Cc2c(cc(Br)c3ccccc23)C(c2ccccc2F)N1 (stereo not given)	257 to 260 °C

Turning now to a further compound:
Query: Recorded melting point of CCCc1c(OCCCOc2ccc(NC(=O)c3nnn[nH]3)cc2)ccc(C(C)=O)c1O , please.
Result: 200 to 202 °C
